Molecular target: HLA-DRB1*1101 (human)
Assay: competition binding
Conditions: modification not given
pIC50: −log10 of the molar value.
MET means recorded pIC50 is 6 or above; NOT MET means it is below 6.

{"columns": ["Binder", "Label Value"],
 "data": [
  ["IPIVGIIAGLVLFGA [p53*]", "NOT MET"],
  ["LTWQRDGEDQTQDTE [p43]", "NOT MET"],
  ["HKWEAAHVAEQLRAY [p30]", "MET"],
  ["GTLRGYYNQSEAGSH [p15*]", "NOT MET"],
  ["HSMRYFFTSVSRPGR [p1*]", "MET"],
  ["APWIEQEGPEYWDGE [p10]", "NOT MET"],
  ["RGYHQYAYDGKDYIA [p22]", "NOT MET"],
  ["TCVEWLRRYLENGKE [p34*]", "MET"],
  ["RSWTAADMAAQTTKH [p28]", "NOT MET"],
  ["VRFDSDAASQRMEPR [p8*]", "NOT MET"],
  ["PRFIAVGYVDDTQFV [p4]", "NOT MET"],
  ["FQKWAAVVVPSGQEQR [p46*]", "MET"]
]}
